- Tested on: UACC-62 melanoma
- PROTOCOL DETAILS: NCI-60 one-dose screen, 48 h (100 = growth as untreated, 0 = no growth, -100 = all killed)
- DETAILS: 10 µM
About 83,000 compounds went through this panel and 20% of them were active in at least one assay; those are over-represented in the sample as a whole.
Below, each of the molecules is paired with its reported growth value.
Write down the numeric answer in % and omit the unit.

# MOLECULE, growth [%]
measured = [
    ("O=c1c2cccc3c(Nc4ccc(Br)cn4)ccc(c32)c2nc3ccccc3n12", 84.8),
    ("Cn1cnc([N+](=O)[O-])c1Sc1nnc(-c2ccccc2)c(-c2ccccc2)n1", 64.3),
    ("CCC(CCNc1cc(OC)cc2cccnc12)CN1C(=O)c2ccccc2C1=O (stereo unspecified)", 97.5),
    ("CC1(C)CC(=O)c2c(nc3ccc(Cl)cc3c2-c2ccccc2)C1", 75.3),
    ("N#C/C(=C/c1cc([N+](=O)[O-])ccc1Cl)C(N)=O", 104),
    ("CCCOCC(O)CNCCN (stereo unspecified)", 101),
]

Read the next record carefully.
Item "CCCCCc1cc[n+](CC(=O)c2ccc(Cl)cc2)cc1" with UACC-62 melanoma - growth? 82.8

FYI, the data here is from PubChem BioAssay (NCI).
